Biological target: T1, recombinant human RANKL (soluble, Gly136-Asp317, N-terminal 10 His, expressed in CHO cells) (human, UniProt O14788 136-317)
T1 sequence: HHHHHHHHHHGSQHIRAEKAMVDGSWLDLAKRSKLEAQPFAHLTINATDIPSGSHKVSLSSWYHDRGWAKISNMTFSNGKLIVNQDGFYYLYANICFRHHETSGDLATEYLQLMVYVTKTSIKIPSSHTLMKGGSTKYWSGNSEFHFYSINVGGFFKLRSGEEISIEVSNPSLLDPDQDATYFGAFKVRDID
Experiment: cell-based or functional assay
assay-readout: IC50 (ng/ml) in RAW264.7 cells

G14 (antibody, human IgG2, kappa, V domains shown) VH: QVQLVQSGAEVKKPGASVKVSCKASGYTFTTYWLQWVRQAPGQGLEWMGAIYPGPGNTKYTQKFKDRVTITADESTSTAYMELSSLRSEDTAVYYCARRGSRRGIAYWGQGTLVTVSA VL: DIVMTQSPDSLAVSLGERATINCRASESVDSYGRSFMHWYQQKPGQAPRLLIYLASNLESGVPSRFSGSGSGTDFTLTINSLEAEDAATYYCQQDNEDPYTFGGGTKLEIKG	~517 ng/mL
G8 (antibody, human IgG2, kappa, V domains shown) VH: QVQLVQSGAELVQPGASVKLSCKASGYTFTTYWLQWVRQTPGQGLEWMGAIYPGPGNTKYTQKFKDRVTITADTSTSTAYMQLNSLRSEDSAVYYCARRGSRRGIAYWGQGTLVTVSA VL: NIVLTQSPASLSVSLGQRATISCRASESVDSYGRSFMHWYQQRPGQAPKLLIYLASNLESGVPARFSGSGSRTDFTLTISSVEAEDEATYYCQQDNEDPYTFGGGTKLEIKG	~573 ng/mL
G10 (antibody, human IgG2, kappa, V domains shown, 293F cells) VH: QVQLVQSGAELKKPGASVKLSCKASGYTFTTYWLQWVRQAPGQGLEWMGAIYPGPGNTKYTQKFKDRFTITADTSKSTAYMQLNSLKSEDSAVYYCARRGSRRGIAYWGQGTLVTVSA VL: NIVLTQSPASLSVSLGQRATISCRASESVDSYGRSFMHWYQQRPGQAPRLLIYLASNLESGVPARFSGSGSRTDFTLTISSVEAEDEATYYCQQDNEDPYTFGGGTKLEIKG	695 ng/mL

In the following, a different binder is considered.
Lab note: G4 (antibody, human IgG2, kappa, V domains shown, 293F cells) VH: QVQLVQSGAELKKPGASVKLSCKASGYTFTTYWLQWVRQAPGQGLEWMGAIYPGPGNTKYTQKFKDRFTITADKSKSTAYMQLNSLKSEDSAVYYCARRGSRRGIAYWGQGTLVTVSA VL: NIVLTQSPASLSVSLGQRATISCRASESVDSYGRSFMHWYQQRPGQAPKLLIYLASNLESGVPARFSGSGSRTDFTLTISSVEAEDEATYYCQQDNEDPYTFGGGTKLEIKG gave IC50 (ng/ml) in RAW264.7 cells of ~1080 ng/mL
